The entries below come with measured EC50 values attached.
Biological target: hGcgR (Homo sapiens, UniProt P47871)
Sequence (P47871 26-477): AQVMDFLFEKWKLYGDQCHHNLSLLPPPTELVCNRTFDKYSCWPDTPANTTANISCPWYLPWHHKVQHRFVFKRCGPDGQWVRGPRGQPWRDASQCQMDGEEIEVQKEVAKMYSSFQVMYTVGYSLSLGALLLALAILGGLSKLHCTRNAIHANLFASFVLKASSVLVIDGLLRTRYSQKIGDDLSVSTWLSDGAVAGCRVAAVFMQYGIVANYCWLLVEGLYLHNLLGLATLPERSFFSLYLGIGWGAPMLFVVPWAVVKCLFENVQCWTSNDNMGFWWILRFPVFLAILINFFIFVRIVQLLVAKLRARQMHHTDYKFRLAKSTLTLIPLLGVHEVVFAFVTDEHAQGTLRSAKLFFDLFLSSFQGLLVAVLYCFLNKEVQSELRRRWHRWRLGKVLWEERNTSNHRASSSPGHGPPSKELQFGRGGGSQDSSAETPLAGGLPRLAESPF
Assay: Functional cAMP activation in the presence of 0.1% casein (no HSA);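 further: intracellular cAMP rise after 30 min at 37 °C, read by HTRF against a cAMP standard curve, scaled from buffer only (0%) to maximal control ligand response (100%)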
Format: cell-based
Conditions: in the presence of 0.1% casein (no HSA); geometric mean; read-out: Relative cAMP EC50, hGcgR
Starred links: 1 amine or outer side, 2 acyl side, 3 side chain; linkers in the order of their positions; H or OH if unused. Non-standard residues stand in square brackets, D forms with d. Groups on a side chain read outwards from the residue. No end group written: not given here. *: point of attachment. C20 diacid = O=C(O)CCCCCCCCCCCCCCCCCCC(=O)*; C18 diacid = O=C(O)CCCCCCCCCCCCCCCCC(=O)*; αMePhe(2-F) = C[C@](N)(Cc1ccccc1F)C(=O)O; γGlu = O=C(O)[C@H](CCC(=O)[*:2])N[*:1]; αMe4Pal = C[C@](N)(Cc1ccncc1)C(=O)O; αMeY = C[C@](N)(Cc1ccc(O)cc1)C(=O)O; 4Pal = N[C@@H](Cc1ccncc1)C(=O)O; αMeL = CC(C)C[C@](C)(N)C(=O)O; Orn = NCCC[C@H](N)C(=O)O; Dab = NCC[C@H](N)C(=O)O; AEEA = NCCOCCOCC(=O)O; Aib = CC(C)(N)C(=O)O
outcome_measure: EC50 (nM)

# substance, system, result_unit, readout_number
data = [
    ("H-Y[Aib]QGTFTSDFS[Orn][αMeL]LDKK([γGlu-γGlu-γGlu-C18 diacid])AQ[Aib]AFIEYLLE[Aib]GPSSGAPPPSGS-NH2 [Example 202]", "hGcgR (Homo sapiens, UniProt P47871)", "nM", 11.4),
    ("H-Y[Aib]QGTFTSD[4Pal]SQ[αMeL]LDKK([γGlu-γGlu-C18 diacid])AQ[αMe4Pal]AFIE[αMe4Pal]LIE[Aib]GPSSGAPPPSGTGE-NH2 [Example 1119]", "hGcgR (Homo sapiens, UniProt P47871)", "nM", 7.61),
    ("H-Y[Aib]QGTFTSD[4Pal]SQ[αMeL]LDKK([γGlu-γGlu-C18 diacid])AQ[αMe4Pal]AFIEYLIE[Aib]GPSSGAPPPEGE-NH2 [Example 884]", "hGcgR (Homo sapiens, UniProt P47871)", "nM", 3.82),
    ("Y[Aib]QGTFTSDFSK[αMeL]LDKK([AEEA-γGlu-C18 diacid])AQ[Aib]QFIEYLLAGGPSSGEPPPSEG-NH2 [Example 26]", "hGcgR (Homo sapiens, UniProt P47871)", "nM", 4.82),
    ("H-Y[Aib]QGTFTSDFS[Orn][αMeL]LDKK([AEEA-AEEA-γGlu-C18 diacid])AQ[Aib]AFIEYLLE[dA]GPSSG[4Pal]PPPSGH-NH2 [Example 257]", "hGcgR (Homo sapiens, UniProt P47871)", "nM", 7.36),
    ("Y[Aib]QGTFTSD[4Pal]SK[αMeL]LDKK([AEEA-γGlu-C20 diacid])AQ[Aib]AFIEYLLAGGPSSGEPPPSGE-NH2 [Example 28]", "hGcgR (Homo sapiens, UniProt P47871)", "nM", 12.6),
    ("H-Y[Aib]QGTFTSDFS[Orn][αMeL]LDKK([γGlu-γGlu-C18 diacid])AQ[Aib]AFIEYLLAGGPSSGAPPPEGSEE-NH2 [Example 1051]", "hGcgR (Homo sapiens, UniProt P47871)", "nM", 10.3),
    ("H-Y[Aib]QGT[αMePhe(2-F)]TSDYSK[αMeL]LDKK([AEEA-γGlu-C18 diacid])AQ[Aib]QFIEYLEEGGPSSGEPPPSEG-NH2 [Example 292]", "hGcgR (Homo sapiens, UniProt P47871)", "nM", 1.84),
    ("H-Y[Aib]QGTFTSD[4Pal]S[Orn][αMeL]LDKK([γGlu-γGlu-C18 diacid])AQ[αMe4Pal]AFIE[αMeY]LIAGGPSSGEPPPSGS-NH2 [Example 1014]", "hGcgR (Homo sapiens, UniProt P47871)", "nM", 3.62),
    ("Y[Aib]QGTFTSDFS[Orn][αMeL]LDKK([AEEA-γGlu-C18 diacid])AQ[Aib]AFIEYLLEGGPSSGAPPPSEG-NH2 [Example 50]", "hGcgR (Homo sapiens, UniProt P47871)", "nM", 4.25),
    ("H-Y[Aib]QGTFTSD[4Pal]S[Orn][αMeL]LDKK([AEEA-AEEA-γGlu-C18 diacid])AQ[αMe4Pal]AFIEYLIE[Aib]GPSSGAPPPSGS-NH2 [Example 814]", "hGcgR (Homo sapiens, UniProt P47871)", "nM", 3.92),
    ("H-Y[Aib]QGT[αMePhe(2-F)]TSDYSILLDKQAAK([AEEA-AEEA-γGlu-C20 diacid])EFIEYLIEGGPSSGEPPPSEG-NH2 [Example 348]", "hGcgR (Homo sapiens, UniProt P47871)", "nM", 3.9),
    ("Y[Aib]QGTFTSDFSK[αMeL]LDKK([AEEA-γGlu-C20 diacid])AQ[Aib]AFIQYLLAGGPSSGEPPPSEG-NH2 [Example 27]", "hGcgR (Homo sapiens, UniProt P47871)", "nM", 8.91),
    ("H-Y[Aib]QGTFTSDFS[Dab][αMeL]LDKK([AEEA-γGlu-C18 diacid])AQ[Aib]AFIEYLIE[Aib]GPSSGAPPPSGS-NH2 [Example 799]", "hGcgR (Homo sapiens, UniProt P47871)", "nM", 1.64),
    ("H-Y[Aib]QGTFTSDFS[Orn][αMeL]LDKK([AEEA-γGlu-C18 diacid])AQ[Aib]AFIEWLLEGGESSGAPPPEGS-NH2 [Example 125]", "hGcgR (Homo sapiens, UniProt P47871)", "nM", 3.97),
    ("H-Y[Aib]QGTFTSD[4Pal]SQ[αMeL]LD[Orn]K([γGlu-γGlu-C18 diacid])AQ[αMe4Pal]QFIEYLIAGGPSSGAPPPSGSEE-NH2 [Example 1005]", "hGcgR (Homo sapiens, UniProt P47871)", "nM", 9.46),
    ("H-Y[Aib]QGTFTSD[4Pal]S[Orn][αMeL]LD[Orn]K([γGlu-γGlu-C18 diacid])AQ[Aib]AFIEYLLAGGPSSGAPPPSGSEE-NH2 [Example 1069]", "hGcgR (Homo sapiens, UniProt P47871)", "nM", 21.2),
    ("Y[Aib]QGTFTSDFS[Orn][αMeL]LDKK([AEEA-γGlu-C18 diacid])AQ[Aib]AFIEYLLAGGPSSGEPPPEGE-NH2 [Example 98]", "hGcgR (Homo sapiens, UniProt P47871)", "nM", 6.91),
    ("H-Y[Aib]QGTFTSDFS[Orn][αMeL]LDKK([γGlu-γGlu-C18 diacid])AQ[Aib]AFIEYLLE[Aib]GPSSGAPPPSGS-NH2 [Example 201]", "hGcgR (Homo sapiens, UniProt P47871)", "nM", 3.84),
    ("H-Y[Aib]QGTFTSDFS[Orn][αMeL]LDKK([AEEA-γGlu-C18 diacid])AQ[Aib]AFIEYLLE[Aib]GPSSG[Aib]PPPSGS-NH2 [Example 239]", "hGcgR (Homo sapiens, UniProt P47871)", "nM", 2.14),
    ("H-Y[Aib]QGTFTSD[4Pal]SQ[αMeL]LDKK([γGlu-γGlu-C18 diacid])AQ[αMe4Pal]AFIEYLIE[Aib]GPSSGAPPPSGSE-NH2 [Example 890]", "hGcgR (Homo sapiens, UniProt P47871)", "nM", 4.73),
    ("H-Y[Aib]QGTFTSDFS[Orn][αMeL]LDKK([AEEA-γGlu-C18 diacid])AQ[Aib]AFIEYLLE[Aib]G[4Pal]SSGAPPPSGE-NH2 [Example 248]", "hGcgR (Homo sapiens, UniProt P47871)", "nM", 3.36),
    ("H-Y[Aib]QGTFTSD[4Pal]SQ[αMeL]LDKK([AEEA-γGlu-C18 diacid])AQ[Aib]AFIE[αMeY]LIEGGPSSGAPPPEGS-NH2 [Example 853]", "hGcgR (Homo sapiens, UniProt P47871)", "nM", 26.5),
]
